Assay: absorption spectrum (maximum absorption wavelength, molar extinction coefficient)
Format: physicochemical
# reported molar extinction coefficient; entries follow
MEASUREMENT TYPE: molar extinction coefficient

* COc1c2c3c4c(c(NCC5CCC(C(=O)NCCCCS(=O)(=O)O)CC5)c(=O)c5c(O)cc(OC)c(c6c(OC)cc(NCC7CCC(C(=O)NCCCCS(=O)(=O)O)CC7)c(c1=O)c63)c54)C=C(C)C2 (stereo not shown) [HC-13d-C4-SO3H] | 31,000 M^−1cm^−1
* COCCOC(=O)C1CCC(Nc2c(NC3CCC(C(=O)OCCOC)CC3)c3c(=O)cc(OC)c4c5c(OC)cc(=O)c6c(O)c(OC)c7c(c(c2C=C(C)C7C(C)=O)c34)c65)CC1 (stereo not shown) [HB-14a-PEG1] | 30,500 M^−1cm^−1
* COc1c2c3c4c(c(NCCOCCO)c(=O)c5c(O)cc(OC)c(c6c(OC)cc(NCCOCCO)c(c1=O)c63)c54)C=C(C)C2 [HC-1d] | 28,500 M^−1cm^−1
* COCCOCCNC(=O)C1CCC(CNc2c(NCC3CCC(C(=O)NCCOCCOC)CC3)c3c(=O)cc(OC)c4c5c(OC)cc(=O)c6c(O)c(OC)c7c(c(c2C=C(C)C7)c34)c65)CC1 (stereo not shown) [HC-13a-NH-PEG1] | 30,000 M^−1cm^−1
* COc1c2c3c4c(c(NCCC(=O)O)c(=O)c5c(NCCC(=O)O)cc(OC)c(c6c(OC)cc(O)c(c1=O)c63)c54)C=C(C)C2C(C)=O (stereo not shown) [HB-10c] | 33,000 M^−1cm^−1
* COc1c2c3c4c(c(NC5CCC(C(=O)O)CC5)c(=O)c5c(NC6CCC(C(=O)O)CC6)cc(OC)c(c6c(OC)cc(O)c(c1=O)c63)c54)C=C(C)C2C(C)=O (stereo not shown) [HB-14c] | 28,000 M^−1cm^−1
* COCCOCCOCCOCCOC(=O)C1CCC(CNc2c3c4c5c(c(OC)c(=O)c6c(O)cc(OC)c(c7c(OC)cc(NCC8CCC(C(=O)OCCOCCOCCOCCOC)CC8)c(c2=O)c74)c65)CC(C)=C3)CC1 (stereo not shown) [HC-13c-PEG4] | 31,500 M^−1cm^−1
* COc1c2c3c4c(c(NC(CO)C(=O)O)c(=O)c5c(NC(CO)C(=O)O)cc(OC)c(c6c(OC)cc(O)c(c1=O)c63)c54)C=C(C)C2C(C)=O (stereo not shown) [HB-23c] | 22,000 M^−1cm^−1
* COc1c(O)c2c(=O)cc(OC)c3c4c(OC)c(Br)c(=O)c5c(NCCNCCOCCO)c(NCCNCCOCCO)c6c(c(c1C(C(C)=O)C(C)=C6)c23)c54 (stereo not shown) [HB-5a-Br-PEG1] | 30,500 M^−1cm^−1
* COc1c(O)c2c(=O)cc(OC)c3c4c(OC)cc(=O)c5c(NCCCC(=O)O)c(NCCCC(=O)O)c6c(c(c1CC(C)=C6)c23)c54 [HC-8a] | 28,500 M^−1cm^−1
* COc1c2c3c4c(c(NCC(=O)O)c(=O)c5c(NCCCC(=O)O)cc(OC)c(c6c(OC)cc(O)c(c1=O)c63)c54)C=C(C)C2C(C)=O (stereo not shown) [HB-43c] | 26,500 M^−1cm^−1
* COc1c(O)c2c(=O)cc(OC)c3c4c(OC)cc(=O)c5c(NC6(CO)CC6)c(NC6(CO)CC6)c6c(c(c1C(C(C)=O)C(C)=C6)c23)c54 (stereo not shown) [HB-35a] | 30,500 M^−1cm^−1
* COCCOCCC(=O)N1CCC(CNc2c(NCC3CCN(C(=O)CCOCCOC)CC3)c3c(=O)c(Br)c(OC)c4c5c(OC)cc(=O)c6c(O)c(OC)c7c(c(c2C=C(C)C7C(C)=O)c34)c65)CC1 (stereo not shown) [HB-31a-Br-PEG1] | 32,000 M^−1cm^−1
* COc1c(O)c2c(=O)cc(OC)c3c4c(OC)cc(=O)c5c(NCCC6CCC(O)CC6)c(NCCC6CCC(O)CC6)c6c(c(c1C(C(C)=O)C(C)=C6)c23)c54 (stereo not shown) [HB-18a] | 24,000 M^−1cm^−1
* COC(=O)C1CCC(CNc2c3c4c5c(c(OC)c(=O)c6c(NCC7CCC(C(=O)OC)CC7)cc(OC)c(c7c(OC)cc(O)c(c2=O)c74)c65)C(C(C)=O)C(C)=C3)CC1 (stereo not shown) [HB-13d-AcE] | 28,000 M^−1cm^−1
* CCNc1c(O)c2c(=O)cc(OC)c3c4c(OC)cc(=O)c5c(NC6CCCC6)c(OC)c6c(c(c1C=C(C)C6C(C)=O)c23)c54 (stereo not shown) [HB-44b] | 21,000 M^−1cm^−1
* COc1c2c3c4c(c(NCCCC(=O)O)c(=O)c5c(NCCCC(=O)O)cc(OC)c(c6c(OC)cc(O)c(c1=O)c63)c54)C=C(C)C2 [HC-8c] | 28,500 M^−1cm^−1
* COc1c2c3c4c(c(NCC5CCC(C(=O)NCCCCCC[P+](c6ccccc6)(c6ccccc6)c6ccccc6)CC5)c(=O)c5c(NCC6CCC(C(=O)NCCCCCC[P+](c7ccccc7)(c7ccccc7)c7ccccc7)CC6)cc(OC)c(c6c(OC)cc(O)c(c1=O)c63)c54)C=C(C)C2 (stereo not shown) [HC-13c-NH—C6-PPh3+] | 33,500 M^−1cm^−1
* COc1c(NCCCCCC(=O)O)c2c(=O)cc(OC)c3c4c(OC)cc(=O)c5c(O)c(NCCCCCC(=O)O)c6c(c(c1CC(C)=C6)c23)c54 [HC-9b] | 27,500 M^−1cm^−1
* COc1c(NO)c2c(=O)cc(OC)c3c4c(OC)cc(=O)c5c(O)c(NO)c6c(c(c1CC(C)=C6)c23)c54 [HC-37b] | 31,500 M^−1cm^−1
* COC(=O)C(CO)Nc1c2c3c4c(c(OC)c(=O)c5c(O)cc(OC)c(c6c(OC)cc(NC(CO)C(=O)OC)c(c1=O)c63)c54)C(C(C)=O)C(C)=C2 (stereo not shown) [HB-24c] | 21,500 M^−1cm^−1
* COc1c(NCCCC(=O)OCCCC[N+](C)(C)C)c2c(=O)cc(OC)c3c4c(OC)cc(=O)c5c(O)c(NCCCC(=O)OCCCC[N+](C)(C)C)c6c(c(c1CC(C)=C6)c23)c54 [HC-8b-C4-N^+] | 31,000 M^−1cm^−1

Values from patent US11439707B2
